- System name: UniProt:P25099
- Measurement notes: Evaluated for binding affinity against Adenosine A1 receptor
Consider the following compounds; for each one, report its pIC50.
Give bare numbers, as −log10 of the molar value.

• Cc1ccc(Nc2ncnc3c2ncn3C2O[C@H](CO)[C@@H](O)[C@H]2O)cc1 (some centres not stated) = 8.31
• OC[C@H]1O[C@@H](n2cnc3c(NC4CC4)ncnc32)[C@H](O)[C@@H]1O = 8.68

Parameters: items (list). Returns: pIC50 for each item.
1. COc1cccc(Nc2ncnc3c2ncn3C2O[C@H](CO)[C@@H](O)[C@H]2O)c1 (some centres not stated)
2. CCCc1ccccc1Nc1ncnc2c1ncn2C1O[C@H](CO)[C@@H](O)[C@H]1O (some centres not stated)
3. OC[C@H]1OC(n2cnc3c(Nc4cccc(F)c4)ncnc32)[C@H](O)[C@@H]1O (some centres not stated)

1: 7.33; 2: 8.92; 3: 9.00

// each compound listed below needs its pIC50
1. OC[C@H]1O[C@@H](n2cnc3c(Nc4ccccc4)ncnc32)[C@H](O)[C@@H]1O
2. OC[C@H]1OC(n2cnc3c(Nc4ccccc4F)ncnc32)[C@H](O)[C@@H]1O (some centres not stated)

1: 8.48; 2: 8.40

* * *

- System name: Adenosine receptor A1 (Rattus norvegicus, UniProt P25099)
- Sequence (P25099 whole entry): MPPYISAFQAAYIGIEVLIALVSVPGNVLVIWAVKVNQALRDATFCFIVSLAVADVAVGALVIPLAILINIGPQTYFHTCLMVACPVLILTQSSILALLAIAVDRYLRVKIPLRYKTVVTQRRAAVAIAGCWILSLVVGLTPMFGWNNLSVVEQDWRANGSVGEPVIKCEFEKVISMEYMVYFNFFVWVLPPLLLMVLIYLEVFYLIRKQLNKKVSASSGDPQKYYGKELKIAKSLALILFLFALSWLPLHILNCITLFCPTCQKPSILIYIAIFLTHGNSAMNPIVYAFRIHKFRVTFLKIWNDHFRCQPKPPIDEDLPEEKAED
Outcome measure: Ki (nM)
Give bare numbers, in nM.

• Cn1c(=O)c2[nH]c(-c3ccc(F)cc3)nc2n(C)c1=O = 1.82
• Cn1c(=O)c2[nH]c(-c3ccc(Cl)cc3)nc2n(C)c1=O = 0.646
• CCCn1c(=O)c2nc(-c3ccc(OC)cc3)[nH]c2n(CCC)c1=O = 4.57
• CCCn1c(=O)c2[nH]c(CC3CCCCC3)nc2n(CCC)c1=O = 38.9

Please state Ki for every molecule in the list that follows.
1. COc1ccccc1-c1nc2c([nH]1)c(=O)n(C)c(=O)n2C
2. CCCn1c(=O)c2nc(Cc3ccccc3)[nH]c2n(CCC)c1=O

191
891

The value of Ki recorded for CCCn1c(=O)c2[nH]c(-c3ccccc3)nc2n(CCC)c1=O when tested on Adenosine receptor A1 (Rattus norvegicus, UniProt P25099) reads 11
